Assay: antimalarial activity against Dd2 strain (AID 2302);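 further: 0% = DMSO untreated growth and 100% = chloroquine plus artemisinin killed control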
Details: P. falciparum Dd2 in RBCs, LDH growth readout, 72 h; at 2 µM; stronger effect = higher value
Each entry below carries its reported growth inhibition.

- compound: "Cc1noc(C)c1-c1cccc(CNCc2ccc(-c3ccc(-c4nc5ccccc5[nH]4)s3)cc2)c1"
  quantity-unit: "%"
  growth inhibition: 79
- compound: "CCN(CC)C(=NCCCCCCN=C(/N=C(/N)Nc1ccc(Br)cc1)N(CC)CC)/N=C(/N)Nc1ccc(Br)cc1"
  quantity-unit: "%"
  growth inhibition: 95
- compound: "Cc1cc(NC2CCCC2)nc(Nc2ccccc2F)n1"
  quantity-unit: "%"
  growth inhibition: 53
- compound: "CCCCOc1c(CCNCCCCNCCc2cc(OC)c3ccccc3c2OCCCC)cc(OC)c2ccccc12"
  quantity-unit: "%"
  growth inhibition: 47
- compound: "CCOC(=O)c1c(C)n(-c2ccc(Cl)cc2)c2ccc(OC(=O)C=Cc3ccccc3)cc12"
  quantity-unit: "%"
  growth inhibition: 92
- compound: "CN1CCN(c2ccc(Nc3nccc(-c4cnn5ncccc45)n3)cc2Cl)CC1"
  quantity-unit: "%"
  growth inhibition: 92
- compound: "COc1ccc(-c2nc3c(NCc4ccccc4)nccc3[nH]2)c(OC)c1"
  quantity-unit: "%"
  growth inhibition: 21
- compound: "CCOc1cc(C)ccc1C1CCN(CCCCNC(=O)c2nc(-c3ccc(C(F)(F)F)cc3)[nH]c2C)CC1"
  quantity-unit: "%"
  growth inhibition: 98
- compound: "NCC(NC(=O)c1ccc(-c2c[nH]c3ncccc23)s1)c1ccccc1 (centres undefined)"
  quantity-unit: "%"
  growth inhibition: 87

###

Test system: R275C/Slo1WT/beta2
Assay: modulators of BK channel variants, profiling panel, selectivity assay, cell-based, U2OS BacMam, thallium flux, beta subunits (AID 1259406);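 further: initial slope of Thallos dye fluorescence rise after thallium is added; log ratio against the mean of 0.3% DMSO vehicle wells on the same plate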
Settings: at 30 µM
Each entry below carries its reported log fold change Tl+ flux.

- structure-string: "O=c1n(-c2ccccc2)c(=O)n2n1C1CCC2C1"
  log fold change Tl+ flux: 0.0498
- structure-string: "Cc1nn(-c2ccccc2)nc1C(=O)NNC(=O)CSCc1cccc2ccccc12"
  log fold change Tl+ flux: 0.0123
- structure-string: "Fc1cccc(Cl)c1CSc1nccn1-c1cccnc1"
  log fold change Tl+ flux: 0.0418
- structure-string: "Cn1ncc2ccccc2c1=O"
  log fold change Tl+ flux: 0.00701
- structure-string: "Clc1ccc(-c2nc(-c3cnccn3)no2)cc1"
  log fold change Tl+ flux: 0.0471
- structure-string: "CCOC(=O)c1ccc(OCC#Cc2ccc(C(F)(F)F)cn2)cc1"
  log fold change Tl+ flux: -0.0412

###

Each entry below carries its reported rescue above control.
Test: rescue of polyQ-huntingtin neuronal dysfunction in worms, whole organism, C. elegans mechanosensory neurons, N-terminal huntingtin (AID 1599)
Details: touch response, stronger effect = higher value
Results with a measured potency or affinity are listed apart. Bridge positions count the residues as written; N and C are the ends. Square brackets hold non-standard residues; d marks the D form. Peptide text beside a SMILES is read from it. * marks the point of attachment. ξ: configuration not given here. ξDab(CH2SO3H) = NC(CCNCS(=O)(=O)O)C(=O)O; Heptanoyl(6-Me) = CC(C)CCCCC(=O)*; Dab = NCC[CH](N)C(=O)O

- compound: "COc1ccc([C@@H]2CC(=O)c3c(O)cc(O[C@@H]4O[C@H](CO[C@H]5O[C@@H](C)[C@H](O)[C@@H](O)[C@H]5O)[C@@H](O)[C@H](O)[C@H]4O)cc3O2)cc1O"
  rescue above control: -5.33
- compound: "CCC(C)C1NC(=O)C(CCNCS(=O)(=O)O)NC(=O)C(NC(=O)C(CCNCS(=O)(=O)O)NC(=O)C(NC(=O)C(CCNCS(=O)(=O)O)NC(=O)CCCCC(C)C)C(C)O)CCNC(=O)C(C(C)O)NC(=O)C(CCNCS(=O)(=O)O)NC(=O)C(CCNCS(=O)(=O)O)NC(=O)C(C(C)CC)NC1=O (configuration not stated) ({Heptanoyl(6-Me)}-[ξDab(CH2SO3H)]T[ξDab(CH2SO3H)][Dab][ξDab(CH2SO3H)]II[ξDab(CH2SO3H)][ξDab(CH2SO3H)]T; lactam 4-C; configuration not given here)"
  rescue above control: 0

###

Molecular target: Calcium-dependent protein kinase 4 (Plasmodium falciparum (isolate 3D7))
Assay: PfCDPK4 kinase inhibitors, biochemical, TCAMS library (AID 1159588)
Details: recombinant PfCDPK4, Kinase-Glo ATP depletion luminescence
Potency and affinity values are given separately. The source made the active and inactive calls. No cut-off is given here; in the data, nearly all actives have IC50 up to about 0.91 µM.

- compound: "CCc1cn(C)c2c(N3CCCC3=O)cc(C(=O)N[C@@H](Cc3ccccc3)[C@H](O)CNC(C)(C)c3cccc(OC)c3)cc12"
  outcome: "inactive"
- compound: "CCN1CCN(c2cc(C)c3cc(NC(=O)c4cccc([N+](=O)[O-])c4)ccc3n2)CC1"
  outcome: "inactive"
- compound: "CCCCn1c(=N)c(C(=O)NCc2cccnc2)cc2c(=O)n3cccc(C)c3nc21"
  outcome: "inactive"
- compound: "CCC(C)NC(=O)Cn1c2ncccc2c(=O)n1-c1ccc(C)cc1 (stereo not given)"
  outcome: "inactive"
- compound: "CC(C)(C)c1ccc(CN2CCCCC(NC(=O)c3cc(-c4ccccc4F)cs3)C2)cc1 (stereo not given)"
  outcome: "inactive"
- compound: "COc1cccc(C(=O)NC(C=Cc2ccccc2)c2cc(Cl)c3cccnc3c2O)c1 (stereo not given)"
  outcome: "inactive"
- compound: "CC(=NNC(=S)NCc1ccco1)c1ccccn1"
  outcome: "inactive"
- compound: "Cn1c(Nc2nnc(C3CC3)s2)nc2cc(Nc3ccnc(Nc4cccc(CS(C)(=O)=O)c4)n3)ccc21"
  outcome: "inactive"
- compound: "Fc1ccc2c(NN=CC=Cc3ccccc3)ccnc2c1"
  outcome: "inactive"
- compound: "CN(C)S(=O)(=O)n1ccc2c3c(N)nc(N)nc3ccc21"
  outcome: "inactive"

###

Target: Calcium-activated potassium channel subunit alpha-1 (Homo sapiens) + Leucine-rich repeat-containing protein 26 (Homo sapiens) (UniProt Q12791+Q2I0M4)
Sequence (Q2I0M4 whole entry, looked up, one chain of several): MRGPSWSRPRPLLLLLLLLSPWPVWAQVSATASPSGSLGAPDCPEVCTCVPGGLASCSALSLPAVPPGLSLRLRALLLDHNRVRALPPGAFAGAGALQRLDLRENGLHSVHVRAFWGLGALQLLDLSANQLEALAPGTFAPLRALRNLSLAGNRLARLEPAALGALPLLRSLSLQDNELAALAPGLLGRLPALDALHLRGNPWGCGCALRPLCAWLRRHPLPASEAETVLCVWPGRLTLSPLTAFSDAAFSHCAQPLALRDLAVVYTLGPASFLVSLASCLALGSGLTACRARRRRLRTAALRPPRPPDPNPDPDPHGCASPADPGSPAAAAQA
Assay: modulators of BK channel variants, profiling panel, selectivity assay, cell-based, U2OS BacMam, thallium flux, beta subunits (AID 1259406);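 further: initial slope of Thallos dye fluorescence rise after thallium is added; log ratio against the mean of 0.3% DMSO vehicle wells on the same plate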
Conditions: F380Y/Slo1WT/gamma1, at 30 µM
Threshold-based label: log fold change Tl+ flux under -0.03 gives Satisfied, log fold change Tl+ flux not under -0.03 gives Not satisfied.

- structure-string: "O=C1C(=Cc2cc(-c3ccccc3)c(C(F)(F)F)s2)CSc2ccc(Cl)cc21"
  class-name: "Not satisfied"
- structure-string: "NNC(=O)Cc1csc2nc(-c3ccccc3)nn12"
  class-name: "Not satisfied"
- structure-string: "FC(F)(F)c1cc(-c2noc(-c3ccc4c(c3)CCO4)n2)cc(C(F)(F)F)c1"
  class-name: "Not satisfied"
- structure-string: "CO[C@H]1/C=C/O[C@@]2(C)Oc3c(C)c(O)c4c(O)c(c5c(c4c3C2=O)NC2(CCN(CC(C)C)CC2)N=5)=NC(=O)/C(C)=C\\C=C\\[C@H](C)[C@H](O)[C@@H](C)[C@@H](O)[C@@H](C)[C@H](OC(C)=O)[C@@H]1C"
  class-name: "Satisfied"
- structure-string: "NC1(C(=O)O)CCSCC1"
  class-name: "Not satisfied"

###

Experiment: sensitizers of A549 cells to miR-34 induction, primary screen, imaging, A549 dox-inducible miR-34, nuclei and caspase counts (AID 1347080)
Conditions: A549 miR-34 inducible, Hoechst nuclei count, 48 h; measured here: total cells without miR-34 induction
assay-endpoint: cell count

- compound: "CC(C)[C@H](N)C(=O)OCC(CO)OCn1cnc2c(=O)[nH]c(N)nc21 (some centres not stated)"
  assay-endpoint: "cell count"
  data-value: 9320
- compound: "COC(=O)C[C@](O)(CCCC(C)(C)O)C(=O)O[C@@H]1C(OC)=C[C@]23CCCN2CCc2cc4c(cc2[C@H]13)OCO4"
  assay-endpoint: "cell count"
  data-value: 1550
- compound: "CC(=O)Oc1cc2c(s1)CCN([C@H](C(=O)C1CC1)c1ccccc1F)C2"
  assay-endpoint: "cell count"
  data-value: 8810
- compound: "C[C@H]1CC2C([C@@H](O)C[C@@]3(C)C2CC[C@]3(O)C(=O)CO)[C@@]2(C)C=CC(=O)C=C12 (some centres not stated)"
  assay-endpoint: "cell count"
  data-value: 8070
- compound: "C[C@]12C=CC(=O)C=C1CCC1C2[C@@H](O)C[C@@]2(C)C1CC[C@]2(O)C(=O)CO (some centres not stated)"
  assay-endpoint: "cell count"
  data-value: 7820
- compound: "CCOc1cc(C(=O)Nc2ccc(Cl)c(-c3nc4ccccc4[nH]3)c2)cc(OCC)c1OCC"
  assay-endpoint: "cell count"
  data-value: 6020
- compound: "CC1c2cccc(O)c2C(O)=C2C(=O)C3(O)C(O)=C(C(N)=O)C(=O)C(N(C)C)C3C(O)C21 (configuration not stated)"
  assay-endpoint: "cell count"
  data-value: 2010
- compound: "COc1cc(-c2ccc(N=Nc3ccc4c(S(=O)(=O)O)cc(S(=O)(=O)O)c(N)c4c3O)c(OC)c2)ccc1N=Nc1ccc2c(S(=O)(=O)O)cc(S(=O)(=O)O)c(N)c2c1O"
  assay-endpoint: "cell count"
  data-value: 10400
- compound: "CCC1(C)OC(=O)N(C)C1=O (configuration not stated)"
  assay-endpoint: "cell count"
  data-value: 8540
- compound: "NCCCNCCCCNCCCN"
  assay-endpoint: "cell count"
  data-value: 11100
- compound: "CC(=O)OCC(=O)[C@@]1(OC(C)=O)[C@@H](C)CC2C3C[C@H](F)C4=CC(=O)C=C[C@]4(C)[C@@]3(F)[C@@H](O)C[C@@]21C (some centres not stated)"
  assay-endpoint: "cell count"
  data-value: 7780
- compound: "CCCCCCCCCCC[C@@H](C[C@H]1OC(=O)[C@H]1CCCCCC)OC(=O)[C@@H](CC(C)C)NC=O"
  assay-endpoint: "cell count"
  data-value: 13000
- compound: "CN1CCN2c3ncccc3Cc3ccccc3[C@@H]2C1"
  assay-endpoint: "cell count"
  data-value: 10500
- compound: "O=C(O)C1=CC(=C(c2ccc(O)c(C(=O)O)c2)c2ccc(O)c(C(=O)O)c2)C=CC1=O"
  assay-endpoint: "cell count"
  data-value: 8290
- compound: "CCN[C@@H]1C[C@H](N)[C@@H](O[C@H]2OC(CN)=CC[C@H]2N)[C@H](O)[C@H]1OC1OC[C@](C)(O)[C@H](NC)[C@H]1O (some centres not stated)"
  assay-endpoint: "cell count"
  data-value: 11200
- compound: "C=C[C@@]1(C)CC(=O)[C@@]2(O)[C@](C)(O1)[C@@H](OC(C)=O)[C@@H](O)C1C(C)(C)CC[C@H](O)[C@@]12C (some centres not stated)"
  assay-endpoint: "cell count"
  data-value: 13400
- compound: "OC[C@@H](O)[C@H](O)[C@@H](O)[C@H](O)CO"
  assay-endpoint: "cell count"
  data-value: 9000
- compound: "CC(=O)[C@@]12O[C@](C)(c3ccccc3)O[C@@H]1CC1C3CCC4=CC(=O)CC[C@]4(C)C3CC[C@@]12C (some centres not stated)"
  assay-endpoint: "cell count"
  data-value: 5940
- compound: "COc1cccc2c1C(=O)c1c(O)c3c(c(O)c1C2=O)C[C@@](O)(C(=O)CO)C[C@@H]3OC1C[C@H](N)[C@H](O)[C@H](C)O1 (some centres not stated)"
  assay-endpoint: "cell count"
  data-value: 1250
- compound: "CO[C@H]1/C=C/O[C@@]2(C)Oc3c(C)c(O)c4c(O)c(c(C=NN5CCN(C)CC5)c(O)c4c3C2=O)NC(=O)/C(C)=C\\C=C\\[C@H](C)[C@H](O)[C@@H](C)[C@@H](O)[C@@H](C)[C@H](OC(C)=O)[C@@H]1C"
  assay-endpoint: "cell count"
  data-value: 10300
- compound: "CC(C)[N+]1(C)C2CC[C@@H]1CC(OC(=O)C(CO)c1ccccc1)C2 (some centres not stated)"
  assay-endpoint: "cell count"
  data-value: 12200
- compound: "C[C@@H]1CC2C3C[C@H](F)C4=CC(=O)C=C[C@]4(C)[C@@]3(F)[C@@H](O)C[C@]2(C)[C@@]1(O)C(=O)COC(=O)C(C)(C)C (some centres not stated)"
  assay-endpoint: "cell count"
  data-value: 8290
- compound: "CC1c2cccc(O)c2C(O)=C2C(=O)[C@]3(O)C(O)=C(C(N)=O)C(=O)[C@@H](N(C)C)[C@@H]3C[C@@H]21 (some centres not stated)"
  assay-endpoint: "cell count"
  data-value: 11000
- compound: "CN1C2CC[C@@H]1CC(OC(=O)[C@H](CO)c1ccccc1)C2 (some centres not stated)"
  assay-endpoint: "cell count"
  data-value: 12600
- compound: "CC[C@@H]1OC(=O)C[C@@H](O)[C@H](C)[C@@H](O[C@@H]2O[C@H](C)[C@@H](O)[C@H](N(C)C)[C@H]2O)[C@@H](CCN2C[C@H](C)C[C@H](C)C2)C[C@@H](C)C(=O)/C=C/C(C)=C\\[C@@H]1CO[C@@H]1O[C@H](C)[C@@H](O)[C@@H](OC)[C@H]1OC"
  assay-endpoint: "cell count"
  data-value: 13600
- compound: "CC(=O)NCCCCCCNC(C)=O"
  assay-endpoint: "cell count"
  data-value: 9770
- compound: "CCCCCCCCCCCCCCCC(=O)OC[C@H](NC(=O)C(Cl)Cl)[C@H](O)c1ccc([N+](=O)[O-])cc1"
  assay-endpoint: "cell count"
  data-value: 11500
- compound: "COc1ccc(C[C@H](N)C(=O)N[C@@H]2[C@@H](CO)OC(n3cnc4c(N(C)C)ncnc43)[C@@H]2O)cc1 (some centres not stated)"
  assay-endpoint: "cell count"
  data-value: 366
- compound: "CCC(=O)OCC(=O)C1(OC(=O)CC)C(C)CC2C3CCC4=CC(=O)C=CC4(C)C3(Cl)C(O)CC21C (configuration not stated)"
  assay-endpoint: "cell count"
  data-value: 8720
- compound: "O=C(O)C1CSCN1 (configuration not stated)"
  assay-endpoint: "cell count"
  data-value: 9550
- compound: "C#C[C@]1(O)CC[C@H]2[C@@H]3CCC4=Cc5oncc5CC4(C)[C@H]3CCC21C (some centres not stated)"
  assay-endpoint: "cell count"
  data-value: 8170
- compound: "C=C1CC[C@H](O)C/C1=C/C=C1\\CCCC2(C)C1CCC2C(C)CCCC(C)C (some centres not stated)"
  assay-endpoint: "cell count"
  data-value: 12900
